B1: Hairpin Ribozyme (parent)
chain: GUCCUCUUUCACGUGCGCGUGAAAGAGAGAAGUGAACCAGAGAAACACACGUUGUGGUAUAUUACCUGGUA

variants of: B1; assay: self-cleavage, relative activity (ratio to wild type); higher = more cleavage; co-transcriptional
// class 0 strictly below 0.2 in self-cleavage; class 1 otherwise

Input line: Tell me whether self-cleavage is at least 0.2 here: G21U A43U
Output line: class 0

Next:
Input line: Tell me whether self-cleavage is at least 0.2 here: G1U G57U
Output line: class 0

Input line: Tell me whether self-cleavage is at least 0.2 here: G32A C38G
Output line: class 0

Input line: Tell me whether self-cleavage is at least 0.2 here: A41G A43C
Output line: class 1

Input line: Tell me whether self-cleavage is at least 0.2 here: C50G U63C
Output line: class 0

Input line: Tell me whether self-cleavage is at least 0.2 here: U67C G69C
Output line: class 0

Input line: Tell me whether self-cleavage is at least 0.2 here: G19C G25A
Output line: class 1

Input line: Tell me whether self-cleavage is at least 0.2 here: U2C A61C
Output line: class 0

Input line: Tell me whether self-cleavage is at least 0.2 here: U8A G68C
Output line: class 1
